Some molecules, each annotated with its measured viability, T/C.
system: 898857-211-R-J1-PDC complex spheroids, growth % test/control; assay: Anticancer human tumor 898857-211-R-J1-PDC patient-derived melanoma cell line growth inhibition [RAS]; settings: second compound 0.1 µM; first compound 0.003 µM; active compounds read low

Study these solved cases before continuing.
CC1(C)CCC(Nc2ncc(C(F)(F)F)c(-c3c[nH]c4c(P(C)(C)=O)c(C#N)ccc34)n2)CN1 (centres undefined) + C=CC(=O)N1CCN(c2nc(OCC3CCCN3C)nc3c(F)c(-c4nc(N)cc(C)c4C(F)(F)F)c(Cl)cc23)C(C)C1 = 74.7%
CC1(C)CCC(Nc2ncc(C(F)(F)F)c(-c3c[nH]c4c(P(C)(C)=O)c(C#N)ccc34)n2)CN1 (centres undefined) + C#Cc1c(F)ccc2cc(O)cc(-c3ncc4c(N5CC6CCC(C5)N6)nc(OCC56CCCN5CC(F)C6)nc4c3F)c12 = 66.7%
CCc1c2c(nc3ccc(O)cc13)-c1cc3c(c(=O)n1C2)COC(=O)[C@]3(O)CC + C=CC(=O)N1CCN(c2nc(OCC3CCCN3C)nc3c(F)c(-c4nc(N)cc(C)c4C(F)(F)F)c(Cl)cc23)C(C)C1 = 68.7%

**Query** State, in one line, measured viability, T/C of CCc1c2c(nc3ccc(O)cc13)-c1cc3c(c(=O)n1C2)COC(=O)[C@]3(O)CC + C#Cc1c(F)ccc2cc(O)cc(-c3ncc4c(N5CC6CCC(C5)N6)nc(OCC56CCCN5CC(F)C6)nc4c3F)c12
**Result** 61.4%

###

system: 898857-211-R-J1-PDC complex spheroids, growth % test/control; test: Anticancer human tumor 898857-211-R-J1-PDC cell line growth inhibition [RAS]; conditions: second compound 0.0949 µM; first compound 0.0316 µM; active compounds read low;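 further: spheroids exposed to compound for seven days before readout; 100% = DMSO vehicle control wells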
Known viability, T/C of a selection of molecules

**Query** Please supply the value of reported viability, T/C for the item CC(=O)OC12COC1CC(O)C1(C)C(=O)C(O)C3=C(C)C(OC(=O)C(O)C(NC(=O)OC(C)(C)C)c4ccccc4)CC(O)(C(OC(=O)c4ccccc4)C21)C3(C)C (centres undefined) + CCn1c(-c2cccnc2C(C)OC)c2c3cc(ccc31)N1CCOC(CC(NC(=O)C(C(C)C)N(C)C(=O)C3(F)CCN(C(=O)C#CC(C)(C)N(C)C)CC3)C(=O)N3CCCC(N3)C(=O)OCC(C)(C)C2)C1
**Result** 8.5%

**Query** Tell us which viability, T/C value is on record for C=CC(=O)Nc1cc(Nc2nccc(-c3cn(C)c4ccccc34)n2)c(OC)cc1N(C)CCN(C)C + CCn1c(-c2cc(N3CCN(C)CC3)cnc2C(C)OC)c2c3cc(ccc31)-c1csc(n1)CC(NC(=O)C1CC1C)C(=O)N1CCCC(N1)C(=O)OCC(C)(C)C2
**Result** 101%

**Query** Return the recorded viability, T/C value; entry: CC(C)NCC(C(=O)N1CCN(c2ncnc3c2C(C)CC3O)CC1)c1ccc(Cl)cc1 (centres undefined) + CCn1c(-c2cc(N3CCN(C)CC3)cnc2C(C)OC)c2c3cc(ccc31)-c1csc(n1)CC(NC(=O)C1CC1C)C(=O)N1CCCC(N1)C(=O)OCC(C)(C)C2
**Result** 99.4%

**Query** Given CCC(CC)c1cc(NC2CCC(N)C2)n2nccc2n1 (centres undefined) + CCn1c(-c2cccnc2C(C)OC)c2c3cc(ccc31)N1CCOC(CC(NC(=O)C(C(C)C)N(C)C(=O)C3(F)CCN(C(=O)C#CC(C)(C)N(C)C)CC3)C(=O)N3CCCC(N3)C(=O)OCC(C)(C)C2)C1 , respond with its viability, T/C.
**Result** 94.9%

###

Consider the following compounds and their measured viability, T/C readings.
tested on: 898857-211-R-J1-PDC complex spheroids, growth % test/control; test: Anticancer human tumor 898857-211-R-J1-PDC cell line growth inhibition [RAS]; conditions: second compound 0.3 µM; first compound 1 µM; active compounds read low;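 further: spheroids exposed to compound for seven days before readout; 100% = DMSO vehicle control wells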
# output: bare number, implied unit %

Previously resolved entries follow.
CC1(O)CCCC1n1c(=O)c(C(F)F)cc2cnc(NC3CCN(S(C)(=O)=O)CC3)nc21 (centres undefined) + CCn1c(-c2cc(N3CCN(C)CC3)cnc2C(C)OC)c2c3cc(ccc31)-c1csc(n1)CC(NC(=O)C1CC1C)C(=O)N1CCCC(N1)C(=O)OCC(C)(C)C2 = 36.3
CC(Nc1ccc2c(c1)OCCn1cc(N3C(=O)OCC3C(F)F)nc1-2)C(N)=O (centres undefined) + CCn1c(-c2cc(N3CCN(C)CC3)cnc2C(C)OC)c2c3cc(ccc31)-c1csc(n1)CC(NC(=O)C1CC1C)C(=O)N1CCCC(N1)C(=O)OCC(C)(C)C2 = 71.7
CCC(CC)c1cc(NC2CCC(N)C2)n2nccc2n1 (centres undefined) + CCn1c(-c2cc(N3CCN(C)CC3)cnc2C(C)OC)c2c3cc(ccc31)-c1csc(n1)CC(NC(=O)C1CC1C)C(=O)N1CCCC(N1)C(=O)OCC(C)(C)C2 = 22.9

Let us move to another entry and its viability, T/C.
**Query** Name the recorded viability, T/C of the item NC1c2ccccc2OC12CCN(c1cnc3c(N4CCCc5ncccc54)n[nH]c3n1)CC2 (centres undefined) + CCn1c(-c2cccnc2C(C)OC)c2c3cc(ccc31)N1CCOC(CC(NC(=O)C(C(C)C)N(C)C(=O)C3(F)CCN(C(=O)C#CC(C)(C)N(C)C)CC3)C(=O)N3CCCC(N3)C(=O)OCC(C)(C)C2)C1 in your answer.
**Result** 72.9

###

tested on: 898857-211-R-J1-PDC complex spheroids, growth % test/control; test: Anticancer human tumor 898857-211-R-J1-PDC cell line growth inhibition [RAS]; settings: second compound 3.16 µM; first compound 0.1 µM; active compounds read low;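 further: spheroids exposed to compound for seven days before readout; 100% = DMSO vehicle control wells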
A collection of compounds and their measured viability, T/C
Express your answer in %, writing the number without its unit.

Worked examples follow.
C=CC(=O)Nc1cc(Nc2nccc(-c3cn(C)c4ccccc34)n2)c(OC)cc1N(C)CCN(C)C + C#Cc1c(F)ccc2cc(O)cc(-c3ncc4c(N5CC6CCC(C5)N6)nc(OCC56CCCN5CC(F)C6)nc4c3F)c12 = 105
CC(=O)OC12COC1CC(O)C1(C)C(=O)C(O)C3=C(C)C(OC(=O)C(O)C(NC(=O)OC(C)(C)C)c4ccccc4)CC(O)(C(OC(=O)c4ccccc4)C21)C3(C)C (stereo not given) + C#Cc1c(F)ccc2cc(O)cc(-c3ncc4c(N5CC6CCC(C5)N6)nc(OCC56CCCN5CC(F)C6)nc4c3F)c12 = 16.7
Cc1nc(N2CCC3(CC2)COC(C)C3N)c(CO)nc1Sc1ccnc(N)c1Cl (stereo not given) + C#Cc1c(F)ccc2cc(O)cc(-c3ncc4c(N5CC6CCC(C5)N6)nc(OCC56CCCN5CC(F)C6)nc4c3F)c12 = 108
CC(C)NCC(C(=O)N1CCN(c2ncnc3c2C(C)CC3O)CC1)c1ccc(Cl)cc1 (stereo not given) + C#Cc1c(F)ccc2cc(O)cc(-c3ncc4c(N5CC6CCC(C5)N6)nc(OCC56CCCN5CC(F)C6)nc4c3F)c12 = 95.9

**Query** Indicate its recorded viability, T/C; the compound in question is CCC(CC)c1cc(NC2CCC(N)C2)n2nccc2n1 (stereo not given) + C#Cc1c(F)ccc2cc(O)cc(-c3ncc4c(N5CC6CCC(C5)N6)nc(OCC56CCCN5CC(F)C6)nc4c3F)c12
**Result** 97.1

###

tested on: 898857-211-R-J1-PDC complex spheroids, growth % test/control; assay: Anticancer human tumor 898857-211-R-J1-PDC cell line growth inhibition [RAS]; conditions: second compound 0.00949 µM; first compound 0.0316 µM; active compounds read low;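 further: spheroids exposed to compound for seven days before readout; 100% = DMSO vehicle control wells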
Measured attribute: viability, T/C (%)
Write down the numeric answer in % and omit the unit.

Consider the worked cases shown below.
CCC(CC)c1cc(NC2CCC(N)C2)n2nccc2n1 (stereo not drawn) + CCn1c(-c2cccnc2C(C)OC)c2c3cc(ccc31)N1CCOC(CC(NC(=O)C(C(C)C)N(C)C(=O)C3(F)CCN(C(=O)C#CC(C)(C)N(C)C)CC3)C(=O)N3CCCC(N3)C(=O)OCC(C)(C)C2)C1 = 103
CC1(O)CCCC1n1c(=O)c(C(F)F)cc2cnc(NC3CCN(S(C)(=O)=O)CC3)nc21 (stereo not drawn) + CCn1c(-c2cc(N3CCN(C)CC3)cnc2C(C)OC)c2c3cc(ccc31)-c1csc(n1)CC(NC(=O)C1CC1C)C(=O)N1CCCC(N1)C(=O)OCC(C)(C)C2 = 78.2
Nc1ccn(C2OC(CO)C(O)C2(F)F)c(=O)n1 (stereo not drawn) + CCn1c(-c2cc(N3CCN(C)CC3)cnc2C(C)OC)c2c3cc(ccc31)-c1csc(n1)CC(NC(=O)C1CC1C)C(=O)N1CCCC(N1)C(=O)OCC(C)(C)C2 = 4.77

**Query** Give measured viability, T/C for NC1c2ccccc2OC12CCN(c1cnc3c(N4CCCc5ncccc54)n[nH]c3n1)CC2 (stereo not drawn) + CCn1c(-c2cccnc2C(C)OC)c2c3cc(ccc31)N1CCOC(CC(NC(=O)C(C(C)C)N(C)C(=O)C3(F)CCN(C(=O)C#CC(C)(C)N(C)C)CC3)C(=O)N3CCCC(N3)C(=O)OCC(C)(C)C2)C1 (898857-211-R-J1-PDC complex spheroids, growth % test/control).
**Result** 99

**Query** Give viability, T/C for this entry on 898857-211-R-J1-PDC complex spheroids, growth % test/control: CC(Nc1ccc2c(c1)OCCn1cc(N3C(=O)OCC3C(F)F)nc1-2)C(N)=O (stereo not drawn) + CCn1c(-c2cccnc2C(C)OC)c2c3cc(ccc31)N1CCOC(CC(NC(=O)C(C(C)C)N(C)C(=O)C3(F)CCN(C(=O)C#CC(C)(C)N(C)C)CC3)C(=O)N3CCCC(N3)C(=O)OCC(C)(C)C2)C1
**Result** 94.9

**Query** Please indicate recorded viability, T/C of C[C@@H](NC(=O)c1ncnc(N)c1Cl)c1ncc(C(=O)Nc2cc(C(F)(F)F)c(Cl)cn2)s1 + CCn1c(-c2cccnc2C(C)OC)c2c3cc(ccc31)N1CCOC(CC(NC(=O)C(C(C)C)N(C)C(=O)C3(F)CCN(C(=O)C#CC(C)(C)N(C)C)CC3)C(=O)N3CCCC(N3)C(=O)OCC(C)(C)C2)C1 measured with 898857-211-R-J1-PDC complex spheroids, growth % test/control.
**Result** 114

**Query** Provide viability, T/C, system 898857-211-R-J1-PDC complex spheroids, growth % test/control, entry C[C@@H](NC(=O)c1ncnc(N)c1Cl)c1ncc(C(=O)Nc2cc(C(F)(F)F)c(Cl)cn2)s1 + CCn1c(-c2cc(N3CCN(C)CC3)cnc2C(C)OC)c2c3cc(ccc31)-c1csc(n1)CC(NC(=O)C1CC1C)C(=O)N1CCCC(N1)C(=O)OCC(C)(C)C2
**Result** 107

**Query** Jot down viability, T/C (898857-211-R-J1-PDC complex spheroids, growth % test/control) of CC(C)NCC(C(=O)N1CCN(c2ncnc3c2C(C)CC3O)CC1)c1ccc(Cl)cc1 (stereo not drawn) + CCn1c(-c2cccnc2C(C)OC)c2c3cc(ccc31)N1CCOC(CC(NC(=O)C(C(C)C)N(C)C(=O)C3(F)CCN(C(=O)C#CC(C)(C)N(C)C)CC3)C(=O)N3CCCC(N3)C(=O)OCC(C)(C)C2)C1 .
**Result** 113
